Target or system: UniProt:P31652
Sequence (P31652 whole entry): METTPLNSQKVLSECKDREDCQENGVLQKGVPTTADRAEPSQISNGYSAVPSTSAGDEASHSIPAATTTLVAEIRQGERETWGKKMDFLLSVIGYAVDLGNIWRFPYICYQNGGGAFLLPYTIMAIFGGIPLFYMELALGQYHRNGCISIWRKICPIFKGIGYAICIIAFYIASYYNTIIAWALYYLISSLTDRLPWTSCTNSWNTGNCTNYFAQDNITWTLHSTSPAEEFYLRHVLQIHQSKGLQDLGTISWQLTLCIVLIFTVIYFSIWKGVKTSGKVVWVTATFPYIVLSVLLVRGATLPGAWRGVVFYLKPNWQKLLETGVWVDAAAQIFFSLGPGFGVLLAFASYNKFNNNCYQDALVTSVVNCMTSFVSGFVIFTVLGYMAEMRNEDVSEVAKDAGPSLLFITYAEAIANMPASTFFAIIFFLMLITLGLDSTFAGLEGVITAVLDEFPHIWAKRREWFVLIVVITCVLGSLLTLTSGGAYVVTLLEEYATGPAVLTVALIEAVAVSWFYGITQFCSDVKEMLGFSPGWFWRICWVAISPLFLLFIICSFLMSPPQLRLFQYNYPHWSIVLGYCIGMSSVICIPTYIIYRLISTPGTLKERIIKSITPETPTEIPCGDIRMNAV
Experimental details: Rat brain SERT binding, [3H]-Citalopram displacement on rat brain membranes
Run parameters: read-out: Rat SERT Ki; rat brain membranes without cerebellum; 0.6 nM [3H]-Citalopram; 60 min at 25° C.
Value kind: log10 of Ki (log10 of the value in nM)
Give log10 of Ki, with Ki taken in nM.

Example results:
CN1Cc2cc(OCCCN3CCCCC3)ncc2C(c2ccc(Cl)cc2)C1 (centres unmarked): 1.34
CN1Cc2cc(OCCCN3CCCCC3)ncc2C(c2ccc(F)cc2)C1 (centres unmarked): 2.27
CCN(CC)CCCOc1cc2c(cn1)C(c1ccc(Cl)c(Cl)c1)CN(C)C2 (centres unmarked): 1.52
CN1Cc2cc(OCCCN3CCCCC3)ncc2C(c2ccccc2)C1 (centres unmarked): 2.76
COc1ccc(C2CN(C)Cc3cc(OCCCN4CCCCC4)ncc32)cc1 (centres unmarked): 1.53

Query block: Lab note: need log10 of Ki for CC(C)N1CCC(COc2cc3c(cn2)C(c2ccc(Cl)c(Cl)c2)CN(C)C3)CC1 (centres unmarked) on UniProt:P31652, anyone have it?
Result block: 1.36

Query block: Given the entry COc1ccc(C2CNCc3cc(OCCCN4CCOCC4)ncc32)cc1 (centres unmarked) , what log10 of Ki was observed with UniProt:P31652?
Result block: 1.72

Query block: Lab note: need log10 of Ki for CCN(CC)CCCOc1cc2c(cn1)C(c1ccc(OC)cc1)CN(C)C2 (centres unmarked) on UniProt:P31652, anyone have it?
Result block: 1.28

Query block: Find the measured log10 of Ki: item CCN(CC)CCCOc1cc2c(cn1)C(c1ccccc1)CN(C)C2 (centres unmarked) , target or system UniProt:P31652.
Result block: 2.77

Query block: Tell me reported log10 of Ki for CN1Cc2cc(OCCCN3CCCCC3)ncc2C(c2ccccc2F)C1 (centres unmarked) , tested with UniProt:P31652.
Result block: 2.28

Query block: Observed log10 of Ki on UniProt:P31652 for Clc1ccccc1C1CNCc2cc(OCCCN3CCCCC3)ncc21 (centres unmarked) , please.
Result block: 2.29
